Test system: U251 CNS
experimentDescription: NCI tumour cell line growth inhibition, 48 h
quantityKind: TGI (µM)
Entry rule: numbers only, all in µM.

Worked cases, answers included:
CO[C@@H]1C[C@H](OC(N)=O)[C@@H]2C=C[C@@H]3/C=C(C)/C=C/[C@@H](C)[C@H]([C@H](C)[C@H](O)[C@@H](C)NC(C)=O)OC(=O)/C=C/C=C(C)\C=C\[C@]3(C)[C@@H]2C1    1.61
CN(C)CCCNC(=O)c1cc2/c(=C\c3ccc(N(C)C)cc3)c3ccccc3n2[n+]1C    69.2
CCOC(=O)C1C(=O)C=C(c2cc(C)ccc2O)CC1c1cccc(Cl)c1 (stereo not drawn)    40.7

Enquiry: # lookup: TGI of COc1ccc(/C=C/C(=O)c2cc3c(N)c(C(=O)Nc4cccc(Cl)c4C)sc3nc2C)cc1
Return: 4.36

Enquiry: And what about the molecule O=[N+]([O-])c1cc(Cl)c(Cl)cc1[N+](=O)[O-] ?
Return: 3.82

Enquiry: And what about the molecule COc1ccc(-c2cc(-c3ccccc3)nc(SCCCC(=O)NO)n2)cc1OC ?
Return: 7.69

Enquiry: And what about the molecule N#Cc1c(-c2ccccc2)cc(-c2ccccc2)n(CCCC(=O)NO)c1=O ?
Return: 4.62

Enquiry: And what about the molecule CCOC(=O)/C=C(/C(=O)OCC)n1cc(C)c(=O)n(/C(=C/C(=O)OCC)C(=O)OCC)c1=O ?
Return: 19.3

Enquiry: And what about the molecule CC[C@]12C=CCN3CC[C@@]4(c5cc(N=O)c(OC)cc5N(C)[C@H]4[C@@](O)(C(=O)NC(Cc4c[nH]c5ccccc45)C(=O)OC)[C@@H]1O)[C@@H]32 (stereo partly drawn) ?
Return: 21.7

Enquiry: And what about the molecule CCO/C=N/C1=C(C#N)C(c2ccc(OC)cc2)c2sc3c(F)cccc3c2O1 (stereo not drawn) ?
Return: 19.7

Enquiry: And what about the molecule O=C1c2[nH]c3ccccc3c2CCN2CCCCC12 (stereo not drawn) ?
Return: 38.3

Enquiry: And what about the molecule COc1cc(/C=C/c2cc(/C=C/c3ccc(O)c(OC)c3)n(-c3c(Cl)cccc3Cl)c(=O)n2)ccc1O ?
Return: 6.36

Enquiry: And what about the molecule O=C([O-])c1cc(I)cc(I)c1[OH2+].O=C([O-])c1cc(I)cc(I)c1[OH2+].[Mn+2] ?
Return: 61.3

Enquiry: And what about the molecule c1ccc([P+](c2ccccc2)(c2ccccc2)c2ccc3c4ccc([P+](c5ccccc5)(c5ccccc5)c5ccccc5)c5cccc(c6cccc2c63)c54)cc1 ?
Return: 17.9

Enquiry: And what about the molecule O=[N+]([O-])c1ccc(C2=Nn3c(nnc3-c3ccccc3)SC2)o1 ?
Return: 33.7

Enquiry: And what about the molecule C[C@@]1(Br)C[C@@](C)(Cl)[C@@H](Br)CC1/C=C/Cl (stereo partly drawn) ?
Return: 42.6

Enquiry: And what about the molecule COc1cc2c(cc1I)-c1c(cc(OC)c(OC)c1OC)CC[C@@H]2NC(C)=O ?
Return: 12.2

* * *

Collected TGI values appear next to each entry.
Test system: SNB-19 CNS
experimentDescription: NCI tumour cell line growth inhibition, 48 h

O=C([O-])c1cc(I)cc(I)c1[OH2+].O=C([O-])c1cc(I)cc(I)c1[OH2+].[Mn+2]    87.7 µM
CC1=CC(C)(C)[C@H]2O[C@@]3(O)C[C@]4(C)[C@H]5C[C@@](C(C)C)(O[C@H]4c4ccoc4)O[C@H]4[C@]5(C3)O[C@@]1(O)[C@]24O    > 100 µM

Enquiry: # lookup: TGI of Cc1cc2c(O)c(c1)COCc1cc(C)cc(c1O)COCc1cc(C)cc(c1O)COC2
Return: > 100 µM

Enquiry: And what about the molecule Cc1ccc(C(=O)O)cc1NC(=O)c1cc(/C=C/c2ccccc2)[nH]c(=S)n1 ?
Return: > 100 µM

The reported numbers originate from PubChem BioAssay (NCI).
